Numbers sourced from patent US20240270821A1.

Biological target: hGIPR (Homo sapiens)
Assay: Functional cAMP activity in the presence of 1% HSA
Type: cell-based
Settings: read-out: cAMP Rel EC50, hGIPR
Starred links: 1 amine or outer side, 2 acyl side, 3 side chain; linkers in the order of their positions; H or OH if unused. Non-standard residues stand in square brackets, D forms with d. Groups on a side chain read outwards from the residue. No end group written: not given here. *: point of attachment. C18 diacid = O=C(O)CCCCCCCCCCCCCCCCC(=O)*; αMePhe(2-F) = C[C@](N)(Cc1ccccc1F)C(=O)O; γGlu = O=C(O)[C@H](CCC(=O)[*:2])N[*:1]; αMe4Pal = C[C@](N)(Cc1ccncc1)C(=O)O; αMeY = C[C@](N)(Cc1ccc(O)cc1)C(=O)O; 4Pal = N[C@@H](Cc1ccncc1)C(=O)O; αMeL = CC(C)C[C@](C)(N)C(=O)O; αMeS = C[C@](N)(CO)C(=O)O; Orn = NCCC[C@H](N)C(=O)O; Dab = NCC[C@H](N)C(=O)O; AEEA = NCCOCCOCC(=O)O; Aib = CC(C)(N)C(=O)O
metric_name: pEC50
In plain terms, pEC50 is the concentration in mol/L turned into minus its base-10 logarithm.

Answered examples (8):
H-Y[Aib]QGTFTSDFS[Dab][αMeL]LDKK([AEEA-γGlu-C18 diacid])AQ[Aib]AFIEYLLE[Aib]GPSSGAPPPSGS-NH2 [Example 133] ... 7.64
H-Y[Aib]QGT[αMePhe(2-F)]TSD[4Pal][αMeS]I[αMeL]LD[Orn]K([γGlu-γGlu-C18 diacid])AQ[αMe4Pal]EFI[dE][αMeY]LIEGGPSSGAPPPSGSE-NH2 [Example 717] ... 9.25
H-Y[Aib]QGTFTSD[4Pal]S[Orn][αMeL]LD[Orn]K([Glu-Glu-γGlu-C18 diacid])AQ[αMe4Pal]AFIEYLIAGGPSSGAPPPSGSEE-NH2 [Example 1062] ... 7.17
Y[Aib]QGT[αMePhe(2-F)]TSD[4Pal][αMeS]I[αMeL]LD[Orn]K([γGlu-γGlu-C18 diacid])AQ[Aib]QFI[dE][αMeY]LQEGGPSSGEPPPEGTE-NH2 [Example 528] ... 8.81
H-Y[Aib]QGTFTSD[4Pal]SQ[αMeL]LD[Orn]K([AEEA-γGlu-γGlu-C18 diacid])AQ[αMe4Pal]AFIEYLIE[dA]GPSSGEPPPSGS-NH2 [Example 1018] ... 7.85
H-Y[Aib]QGT[αMePhe(2-F)]TSD[4Pal][αMeS]I[αMeL]LD[Orn]K([γGlu-γGlu-C18 diacid])AQ[αMe4Pal]EFI[dE][αMeY]LIEGGPSSGAPPPSGTGE-NH2 [Example 718] ... 9.27
H-Y[Aib]QGT[αMePhe(2-F)]TSD[4Pal]SI[αMeL]LD[Orn]K([AEEA-γGlu-C18 diacid])AQ[αMe4Pal][Orn]FI[dE][αMeY]LIEGGPSSGDPPPEGTGE-NH2 [Example 732] ... 8.90
H-Y[Aib]QGT[αMePhe(2-F)]TSD[4Pal][αMeS]I[αMeL]LD[Orn]K([AEEA-γGlu-C18 diacid])AQ[αMe4Pal]EFI[dE][αMeY]LIEGGPPS[Aib][Orn]PPP[Orn]GS-NH2 [Example 1189] ... 9.23

Note pEC50 for the substance shown: H-Y[Aib]QGTFTSDFS[Orn][αMeL]LDKK([AEEA-AEEA-γGlu-C18 diacid])AQ[Aib]AFIEYLLE[Aib]GHSSGAPPPSGS-NH2 [Example 181] 7.90

Note pEC50 for the substance shown: H-Y[Aib]QGT[αMePhe(2-F)]TSD[4Pal][αMeS]I[αMeL]LD[Orn]K([γGlu-γGlu-C18 diacid])AQ[Aib][Orn]FI[dE][αMeY]LAEGGPSSGEPPPSGTGE-NH2 [Example 545] 8.56

###

Biological target: hGLP-1R (Homo sapiens, UniProt P43220)
Sequence (P43220 24-463): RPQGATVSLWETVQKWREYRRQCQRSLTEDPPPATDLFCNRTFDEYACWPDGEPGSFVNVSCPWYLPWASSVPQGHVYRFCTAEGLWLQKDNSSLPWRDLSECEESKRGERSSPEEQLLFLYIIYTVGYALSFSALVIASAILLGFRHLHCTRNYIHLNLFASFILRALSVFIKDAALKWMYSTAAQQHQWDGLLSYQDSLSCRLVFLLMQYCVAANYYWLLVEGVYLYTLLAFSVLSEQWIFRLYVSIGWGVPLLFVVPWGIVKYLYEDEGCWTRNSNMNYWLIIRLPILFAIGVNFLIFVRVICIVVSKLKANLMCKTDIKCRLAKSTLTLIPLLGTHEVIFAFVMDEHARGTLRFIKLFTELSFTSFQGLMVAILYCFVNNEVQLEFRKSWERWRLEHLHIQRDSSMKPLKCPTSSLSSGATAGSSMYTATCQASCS
Assay: Functional cAMP activity in the presence of 1% HSA
Assay type: cell-based
Details: read-out: cAMP Rel EC50, hGLP-1R
Starred links: 1 amine or outer side, 2 acyl side, 3 side chain; linkers in the order of their positions; H or OH if unused. Non-standard residues stand in square brackets, D forms with d. Groups on a side chain read outwards from the residue. No end group written: not given here. *: point of attachment. C20 diacid = O=C(O)CCCCCCCCCCCCCCCCCCC(=O)*; C18 diacid = O=C(O)CCCCCCCCCCCCCCCCC(=O)*; Phe(4-CN) = N#Cc1ccc(C[C@H](N)C(=O)O)cc1; αMePhe(2-F) = C[C@](N)(Cc1ccccc1F)C(=O)O; γGlu = O=C(O)[C@H](CCC(=O)[*:2])N[*:1]; αMe4Pal = C[C@](N)(Cc1ccncc1)C(=O)O; αMeY = C[C@](N)(Cc1ccc(O)cc1)C(=O)O; 4Pal = N[C@@H](Cc1ccncc1)C(=O)O; αMeL = CC(C)C[C@](C)(N)C(=O)O; αMeS = C[C@](N)(CO)C(=O)O; Orn = NCCC[C@H](N)C(=O)O; AEEA = NCCOCCOCC(=O)O; Aib = CC(C)(N)C(=O)O
# reported EC50; entries follow

Answered examples (5):
Y[Aib]QGT[αMePhe(2-F)]TSD[4Pal][αMeS]I[αMeL]LD[Orn]K([Glu-γGlu-C18 diacid])AQ[Aib][Orn]FI[dE][αMeY]LSEGGPSSGEPPPSGTEE-NH2 [Example 564] ... 101 nM
H-Y[Aib]QGTFTSD[4Pal]S[Orn][αMeL]LDKK([γGlu-AEEA-γGlu-C18 diacid])AQ[αMe4Pal]AFIEYLIE[Aib]GPSSGAPPPSGS-NH2 [Example 868] ... 822 nM
H-Y[Aib]QGT[αMePhe(2-F)]TSD[4Pal][αMeS]I[αMeL]LD[Orn]K([γGlu-γGlu-C18 diacid])AQ[Aib][Orn]FI[dE][αMeY]LSEGGPSSGEPPPSGGE-NH2 [Example 559] ... 49.7 nM
H-Y[Aib]QGTFTSDYSK[αMeL]LDKK([AEEA-γGlu-C20 diacid])AQQAFIEYLIAGGPSSGEPPPSGD-NH2 [Example 337] ... 272 nM
H-Y[Aib]QGT[αMePhe(2-F)]TSD[4Pal][αMeS]I[αMeL]LD[Orn][Orn]([AEEA-γGlu-C18 diacid])AQ[αMe4Pal]EFI[dE][αMeY]LIEGGPSSGAPPPSGGGE-NH2 [Example 1213] ... 44 nM

Note EC50 for the substance shown: H-Y[Aib]QGT[αMePhe(2-F)]TSD[4Pal][αMeS]I[αMeL]LD[Orn]K([AEEA-AEEA-γGlu-C18 diacid])AQ[Aib][Orn]FIEYLIEGGPSSGAPEPSEG-NH2 [Example 492] 9.85 nM

Note EC50 for the substance shown: H-Y[Aib]QGT[αMePhe(2-F)]TSD[Phe(4-CN)]SKLLDKIAQK([AEEA-γGlu-C20 diacid])AFIEYLIEGGPSSGAPPPSGS-NH2 [Example 363] 217 nM

Note EC50 for the substance shown: H-Y[Aib]QGTFTSD[4Pal]S[Orn][αMeL]LDKK([AEEA-γGlu-C18 diacid])AQ[Aib]AFIE[αMeY]LIEGGPSSGAPPPSGS-NH2 [Example 836] 103 nM

Note EC50 for the substance shown: H-Y[Aib]QGTFTSD[4Pal]SK[αMeL]LDKK([AEEA-γGlu-C18 diacid])AQ[αMe4Pal]AFIE[αMe4Pal]LIE[Aib]GPSSGAPPPSGS-NH2 [Example 916] 166 nM

Note EC50 for the substance shown: H-Y[Aib]QGTFTSD[4Pal]SQ[αMeL]LDKK([γGlu-γGlu-C18 diacid])AQ[αMe4Pal]AFIEYLIAGGESSGAPPPSGSEE-NH2 [Example 963] 215 nM

Note EC50 for the substance shown: H-Y[Aib]QGT[αMePhe(2-F)]TSD[4Pal]SI[αMeL]LD[Orn]K([AEEA-γGlu-C18 diacid])AQ[αMe4Pal][Orn]FI[dE][αMeY]LIEGGPSSGEPPPEEG-NH2 [Example 475] 18.6 nM

###

Target: hGIPR (Homo sapiens, UniProt P48546)
Sequence (P48546 22-466): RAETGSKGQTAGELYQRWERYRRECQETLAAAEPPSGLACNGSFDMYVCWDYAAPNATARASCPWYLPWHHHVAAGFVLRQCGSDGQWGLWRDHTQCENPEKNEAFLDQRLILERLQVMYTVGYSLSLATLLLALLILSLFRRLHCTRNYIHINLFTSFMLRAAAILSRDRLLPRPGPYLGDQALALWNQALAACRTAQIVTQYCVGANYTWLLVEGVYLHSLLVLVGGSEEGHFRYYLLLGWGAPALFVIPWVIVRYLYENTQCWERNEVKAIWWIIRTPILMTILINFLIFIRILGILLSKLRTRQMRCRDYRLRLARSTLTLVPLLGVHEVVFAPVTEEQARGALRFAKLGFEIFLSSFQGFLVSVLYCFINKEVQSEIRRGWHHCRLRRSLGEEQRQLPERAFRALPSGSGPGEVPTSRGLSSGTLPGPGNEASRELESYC
Assay: Functional cAMP activity in the presence of 1% HSA
Format: cell-based
Conditions: read-out: cAMP Rel EC50, hGIPR
Starred links: 1 amine or outer side, 2 acyl side, 3 side chain; linkers in the order of their positions; H or OH if unused. Non-standard residues stand in square brackets, D forms with d. Groups on a side chain read outwards from the residue. No end group written: not given here. *: point of attachment. C20 diacid = O=C(O)CCCCCCCCCCCCCCCCCCC(=O)*; C18 diacid = O=C(O)CCCCCCCCCCCCCCCCC(=O)*; αMePhe(2-F) = C[C@](N)(Cc1ccccc1F)C(=O)O; γGlu = O=C(O)[C@H](CCC(=O)[*:2])N[*:1]; αMe4Pal = C[C@](N)(Cc1ccncc1)C(=O)O; αMeY = C[C@](N)(Cc1ccc(O)cc1)C(=O)O; 4Pal = N[C@@H](Cc1ccncc1)C(=O)O; αMeL = CC(C)C[C@](C)(N)C(=O)O; Orn = NCCC[C@H](N)C(=O)O; AEEA = NCCOCCOCC(=O)O; Aib = CC(C)(N)C(=O)O
metric_name: EC50

Answered examples (2):
H-Y[Aib]QGTFTSDYSK[αMeL]LDKK([AEEA-γGlu-C20 diacid])AQQAFIEYLIAGGPSSGAPPPSSE-NH2 [Example 322] ... 89.3 nM
H-Y[Aib]QGT[αMePhe(2-F)]TSD[4Pal]SILLDKK([γGlu-γGlu-C18 diacid])AQ[Aib]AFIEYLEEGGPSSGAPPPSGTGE-NH2 [Example 510] ... 6.4 nM

Note EC50 for the substance shown: Y[Aib]QGTFTSD[4Pal]SQ[αMeL]LD[Orn]K([dE-γGlu-C18 diacid])AQ[αMe4Pal]AFIE[αMeY]LLEGGPSSGAPPPSGSEE-NH2 [Example 1058] 45.6 nM

Note EC50 for the substance shown: H-Y[Aib]QGT[αMePhe(2-F)]TSD[4Pal]SILLD[Orn]K([γGlu-γGlu-C18 diacid])AQ[Aib]AFIEYLEEGGPSSGAPPPSGTE-NH2 [Example 513] 10.3 nM

Note EC50 for the substance shown: H-Y[Aib]QGTFTSDFSK[αMeL]LDKK([AEEA-γGlu-C20 diacid])AQ[Aib]AFIEYLLEGGPSSGAPPP[γGlu]EG-NH2 [Example 52] 111 nM

Note EC50 for the substance shown: H-Y[Aib]QGTFTSD[4Pal]SK[αMeL]LDKK([AEEA-γGlu-C18 diacid])AQ[αMe4Pal]AFIEYLIE[Aib]GPSSGAPPPSGS-NH2 [Example 915] 15.3 nM
